From: the OligoGym collection

assayed-target: UBE2M
test-name: reporter assay of Huesken 2005
test-settings: siRNA
Oligonucleotides are written 5' to 3', each unit as a sugar letter and its base; * is a phosphorothioate linkage, no mark a phosphodiester; rarer units and linkages stand in square brackets, end groups in braces. Plain capitals give the bases only. d = 2'-deoxy (DNA); r = 2'-OH (RNA)
Tag: Fulfilled if measured normalised inhibition (eCFP-eYFP dual reporter) is not below 70%, Not fulfilled if it is.

A selection of reference data follows.
sense rCrUrArCrArArGrArGrUrGrGrGrArArGrUrUrUdTdT / antisense rArArArCrUrUrCrCrCrArCrUrCrUrUrGrUrArGdAdA : Fulfilled
sense rCrUrGrGrUrCrArUrCrUrGrUrCrCrUrGrArUrGdTdT / antisense rCrArUrCrArGrGrArCrArGrArUrGrArCrCrArGdCdT : Fulfilled
sense rArGrUrCrGrGrCrGrGrGrCrGrGrCrArCrCrArAdTdT / antisense rUrUrGrGrUrGrCrCrGrCrCrCrGrCrCrGrArCrUdCdC : Fulfilled
sense rGrGrGrCrCrArGrGrGrUrUrArCrCrCrGrCrArUdTdT / antisense rArUrGrCrGrGrGrUrArArCrCrCrUrGrGrCrCrCdAdC : Fulfilled

We now examine a further substance.
Q) Please check the record sense rArArCrGrUrGrCrArGrCrGrCrUrCrCrArUrGrCdTdT / antisense rGrCrArUrGrGrArGrCrGrCrUrGrCrArCrGrUrUdCdT and state if its normalised inhibition (eCFP-eYFP dual reporter) is at or above 70%.
A) Not fulfilled
